Sourced from ChEMBL document CHEMBL5705895

biological target: Transient receptor potential cation channel subfamily A member 1 (Homo sapiens, UniProt O75762); experiment: Antagonist activity at full length human TRPA1 transfected in HEK293F cells assessed as blockade of MO-induced TRPA1 channel activation by measuring Ca2+ influx in presence of 30 uM MO by FLIPR calcium assay
Sequence (O75762 whole entry): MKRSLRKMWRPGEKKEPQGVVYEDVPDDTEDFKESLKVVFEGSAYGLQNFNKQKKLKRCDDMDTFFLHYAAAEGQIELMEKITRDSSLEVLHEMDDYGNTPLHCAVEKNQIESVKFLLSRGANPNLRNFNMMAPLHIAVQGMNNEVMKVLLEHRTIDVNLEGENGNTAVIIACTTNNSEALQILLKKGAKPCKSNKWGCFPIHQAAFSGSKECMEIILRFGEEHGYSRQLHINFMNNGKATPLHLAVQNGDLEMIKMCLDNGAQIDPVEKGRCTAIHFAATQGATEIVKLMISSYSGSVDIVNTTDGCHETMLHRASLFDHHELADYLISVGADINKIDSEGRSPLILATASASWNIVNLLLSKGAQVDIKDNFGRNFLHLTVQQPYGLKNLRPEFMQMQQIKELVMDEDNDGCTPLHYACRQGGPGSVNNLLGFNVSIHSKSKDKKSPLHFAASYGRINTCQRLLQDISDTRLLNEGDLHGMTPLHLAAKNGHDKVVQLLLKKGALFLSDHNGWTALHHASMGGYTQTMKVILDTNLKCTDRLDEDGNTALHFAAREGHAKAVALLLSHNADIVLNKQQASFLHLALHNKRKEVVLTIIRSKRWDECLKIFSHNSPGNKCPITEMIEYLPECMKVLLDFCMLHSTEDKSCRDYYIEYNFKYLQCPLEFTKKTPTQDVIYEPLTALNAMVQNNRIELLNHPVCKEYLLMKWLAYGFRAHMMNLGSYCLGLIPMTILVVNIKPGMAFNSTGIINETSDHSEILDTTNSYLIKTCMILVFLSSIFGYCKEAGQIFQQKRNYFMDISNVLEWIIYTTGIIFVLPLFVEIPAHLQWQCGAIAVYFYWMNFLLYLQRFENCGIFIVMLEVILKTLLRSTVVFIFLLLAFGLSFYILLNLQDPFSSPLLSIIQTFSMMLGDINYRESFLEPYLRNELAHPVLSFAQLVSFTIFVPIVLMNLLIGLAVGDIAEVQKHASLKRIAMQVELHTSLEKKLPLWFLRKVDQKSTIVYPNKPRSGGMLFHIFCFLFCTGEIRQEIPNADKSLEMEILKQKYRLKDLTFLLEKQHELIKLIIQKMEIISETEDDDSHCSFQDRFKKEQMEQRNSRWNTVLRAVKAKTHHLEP
Each entry below carries its reported IC50.

# Molecule, IC50
measured = [
    ("CC(C)c1ccc(NC(=O)Cn2cnc3c2c(=O)n(C)c(=O)n3C)cc1", "7.4 µM"),
    ("CC(=C\\c1ccc(Cl)cc1)/C(C)=N/O", "9.1 µM"),
    ("CC1CCC(C(C)C)C(O)C1 (centres undefined)", "> 1000 µM"),
    ("Cn1c(=O)c2c(ncn2C)n(C)c1=O", "988 µM"),
]

----------
target: Transient receptor potential cation channel subfamily A member 1 (Mus musculus, UniProt Q8BLA8); test: Antagonist activity at full length mouse TRPA1 transfected in HEK293F cells assessed as blockade of MO-induced TRPA1 channel activation by measuring Ca2+ influx in presence of 30 uM MO by FLIPR calcium assay
Sequence (Q8BLA8 whole entry): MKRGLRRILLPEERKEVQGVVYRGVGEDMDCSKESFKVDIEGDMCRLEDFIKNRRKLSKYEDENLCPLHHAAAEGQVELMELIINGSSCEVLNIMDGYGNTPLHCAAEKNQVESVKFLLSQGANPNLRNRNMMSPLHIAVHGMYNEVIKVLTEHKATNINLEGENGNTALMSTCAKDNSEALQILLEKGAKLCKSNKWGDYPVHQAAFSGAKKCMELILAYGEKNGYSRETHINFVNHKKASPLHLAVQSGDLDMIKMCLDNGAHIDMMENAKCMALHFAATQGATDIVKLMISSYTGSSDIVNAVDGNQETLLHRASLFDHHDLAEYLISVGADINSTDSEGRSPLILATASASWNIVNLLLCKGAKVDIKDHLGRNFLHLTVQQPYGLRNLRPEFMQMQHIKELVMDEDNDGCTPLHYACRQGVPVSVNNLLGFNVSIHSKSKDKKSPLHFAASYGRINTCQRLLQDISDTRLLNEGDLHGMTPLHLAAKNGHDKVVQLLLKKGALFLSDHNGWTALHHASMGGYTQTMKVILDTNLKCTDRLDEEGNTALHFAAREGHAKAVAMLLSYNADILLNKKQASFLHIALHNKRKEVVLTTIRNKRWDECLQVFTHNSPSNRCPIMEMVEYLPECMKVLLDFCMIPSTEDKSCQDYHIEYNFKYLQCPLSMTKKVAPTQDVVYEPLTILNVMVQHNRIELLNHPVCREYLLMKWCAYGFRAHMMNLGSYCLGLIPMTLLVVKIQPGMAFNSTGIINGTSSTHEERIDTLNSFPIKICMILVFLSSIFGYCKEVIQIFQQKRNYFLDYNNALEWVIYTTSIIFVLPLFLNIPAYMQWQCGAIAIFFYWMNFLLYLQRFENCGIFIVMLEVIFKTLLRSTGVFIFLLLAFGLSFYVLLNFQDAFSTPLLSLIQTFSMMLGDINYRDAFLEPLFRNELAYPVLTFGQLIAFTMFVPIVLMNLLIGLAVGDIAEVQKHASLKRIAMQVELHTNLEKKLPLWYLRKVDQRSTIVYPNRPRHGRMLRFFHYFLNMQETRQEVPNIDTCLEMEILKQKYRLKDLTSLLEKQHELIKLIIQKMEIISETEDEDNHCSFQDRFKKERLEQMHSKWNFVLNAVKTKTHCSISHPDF
pIC50: −log10 of the molar value.

# Compound, pIC50
data = [
    ("CC(C)c1ccc(NC(=O)Cn2cnc3c2c(=O)n(C)c(=O)n3C)cc1", 5.17),
    ("CC(=C\\c1ccc(Cl)cc1)/C(C)=N/O", 4.48),
    ("CCC(=N\\O)/C(C)=C/c1ccc(F)cc1", 6.12),
    ("CC1CCC(C(C)C)C(O)C1 (centres undefined)", 3.02),
]

----------
biological target: UniProtKB Q6RI86; experiment: Agonist activity at full length rat TRPA1 transfected in HEK293F cells assessed as increase in Ca2+ influx by FLIPR calcium assay relative to MO; format: cell-based; conditions: filed as agonist
Sequence (Q6RI86 whole entry): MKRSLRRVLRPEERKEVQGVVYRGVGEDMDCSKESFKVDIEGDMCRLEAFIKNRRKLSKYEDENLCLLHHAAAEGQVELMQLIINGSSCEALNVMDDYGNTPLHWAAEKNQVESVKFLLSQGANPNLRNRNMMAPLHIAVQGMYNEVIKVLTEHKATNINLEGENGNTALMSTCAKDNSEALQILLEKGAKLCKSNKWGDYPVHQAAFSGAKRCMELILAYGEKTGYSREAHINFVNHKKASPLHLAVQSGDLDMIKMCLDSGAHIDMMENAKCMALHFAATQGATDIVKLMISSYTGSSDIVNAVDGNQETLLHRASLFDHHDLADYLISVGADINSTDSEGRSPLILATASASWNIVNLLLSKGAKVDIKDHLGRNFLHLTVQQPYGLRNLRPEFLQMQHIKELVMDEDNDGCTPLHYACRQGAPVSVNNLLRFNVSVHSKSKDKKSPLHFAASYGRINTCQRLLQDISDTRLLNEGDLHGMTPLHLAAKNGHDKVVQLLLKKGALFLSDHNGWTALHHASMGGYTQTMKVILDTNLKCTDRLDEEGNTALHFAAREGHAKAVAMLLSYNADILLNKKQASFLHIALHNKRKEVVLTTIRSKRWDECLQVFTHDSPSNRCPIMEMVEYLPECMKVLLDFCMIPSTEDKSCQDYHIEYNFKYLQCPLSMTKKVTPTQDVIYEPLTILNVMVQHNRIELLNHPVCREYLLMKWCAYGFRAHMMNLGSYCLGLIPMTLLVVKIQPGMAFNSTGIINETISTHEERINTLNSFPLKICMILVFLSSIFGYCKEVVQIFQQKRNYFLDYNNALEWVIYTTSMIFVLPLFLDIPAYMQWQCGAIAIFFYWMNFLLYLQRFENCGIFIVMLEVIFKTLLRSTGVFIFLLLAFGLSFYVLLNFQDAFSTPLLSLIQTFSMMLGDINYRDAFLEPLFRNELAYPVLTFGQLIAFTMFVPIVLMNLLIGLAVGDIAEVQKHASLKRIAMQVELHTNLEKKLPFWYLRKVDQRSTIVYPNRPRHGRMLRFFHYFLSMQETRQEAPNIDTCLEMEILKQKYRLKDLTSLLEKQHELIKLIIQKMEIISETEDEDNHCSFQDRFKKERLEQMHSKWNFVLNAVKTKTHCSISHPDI

# Compound, Emax
measured = [
    ("CC1CCC(C(C)C)C(O)C1 (configuration not stated) [MENTHOL]", "41%"),
    ("Cn1c(=O)c2c(ncn2C)n(C)c1=O [CAFFEINE]", "44%"),
    ("CCCCC/C=C/C=C1/C(=O)C=C[C@@H]1C/C=C\\CCCC(=O)O", "70%"),
    ("CCCCCC(O)/C=C/C=O (configuration not stated) [4-HYDROXYNON-2-ENAL]", "76%"),
    ("NC(=O)c1cccc(-c2cccc(OC(=O)NC3CCCCC3)c2)c1 [URB-597]", "72%"),
    ("CC(C)=CCC/C(C)=C/CC/C(C)=C/CSc1ccccc1C(=O)O [SALIRASIB]", "89%"),
    ("O=C/C=C/c1ccccc1", "89%"),
]

----------
target: Transient receptor potential cation channel subfamily A member 1 (Homo sapiens); experiment: Agonist activity at full length human TRPA1 transfected in HEK293F cells assessed as increase in Ca2+ influx by FLIPR calcium assay
pEC50: −log10 of the molar value.

# Compound, pEC50
records = [
    ("CCCCC/C=C/C=C1/C(=O)C=C[C@@H]1C/C=C\\CCCC(=O)O", 4.39),
    ("NC(=O)c1cccc(-c2cccc(OC(=O)NC3CCCCC3)c2)c1 [URB-597]", 5.12),
    ("CCCCCC(O)/C=C/C=O (stereo unspecified) [4-HYDROXYNON-2-ENAL]", 5.00),
    ("CC1CCC(C(C)C)C(O)C1 (stereo unspecified) [MENTHOL]", 3.56),
    ("O=C/C=C/c1ccccc1", 4.90),
    ("CC(C)=CCC/C(C)=C/CC/C(C)=C/CSc1ccccc1C(=O)O [SALIRASIB]", 5.31),
]
